tested on: HepG2; assay: Apoptotic cytotoxicity in human HepG2 cells assessed as caspase-3/7 activity at 30 uM after 24 hrs by caspase-glo-3/7 assay relative to staurosporine; type: cell-based; conditions: hepg2, 24 h
// reported Activity for each item listed
Write the number in % without appending the unit.

Cc1ccccc1-c1cccc(COc2ccc(S(=O)(=O)CC(=O)O)cc2)c1 : -2.7
COc1cc(C)c(-c2cccc(COc3ccc(S(=O)(=O)CC(=O)O)cc3)c2)c(C)c1 : -2.4
O=C(O)CS(=O)(=O)c1ccc(OCc2cccc(-c3ccccc3C(F)(F)F)c2)cc1 : 12.5
Cc1cc(OCC2CC2)cc(C)c1-c1cccc(COc2ccc(S(=O)(=O)CC(=O)O)cc2)c1 : 26.3

Switching to the query record.
Which measured Activity value corresponds to CCOc1ccc(-c2cccc(COc3ccc(S(=O)(=O)CC(=O)O)cc3)c2)c(Cl)c1 ? 26.9

* * *

Below is a list of entries, each paired with its recorded Efficacy value.
target: Free fatty acid receptor 1 (Homo sapiens); assay: Agonist activity at human FFA1 receptor expressed in CHO cells assessed as increase in intracellular calcium flux at 10 uM by Fluo 4AM dye-based FLIPR assay relative to TAK-875; format: functional, cell-based
Give just the number in %; leave the unit off.

O=C(O)CS(=O)(=O)c1ccc(OCc2cccc(-c3ccccc3C(F)(F)F)c2)cc1 : 108
COc1cc(C)c(-c2cccc(COc3ccc4c(c3)SCC4CC(=O)O)c2)c(C)c1 (centres undefined) : 98
COc1cc(C)c(-c2cccc(COc3ccc(S(=O)(=O)CC(=O)O)cc3)c2)c(C)c1 : 106
N#Cc1ccccc1-c1cccc(COc2ccc(S(=O)(=O)CC(=O)O)cc2)c1 : 78
O=C(O)CS(=O)(=O)c1ccc(OCc2cccc(-c3ccccc3)c2)cc1 : 94
Cc1cccc(C)c1-c1cccc(COc2ccc(S(=O)(=O)CC(=O)O)cc2)c1 : 103
Cc1cc(OCC(C)C)cc(C)c1-c1cccc(COc2ccc(S(=O)(=O)CC(=O)O)cc2)c1 : 96
Cc1ccc(C)n1-c1cccc(COc2ccc(S(=O)(=O)CC(=O)O)cc2)c1 : 85

Entry Cc1noc(C)c1-c1ccc(Cl)c(COc2ccc(S(=O)(=O)CC(=O)O)cc2)c1 has what Efficacy? 84

* * *

experiment: Cmax in fasted Sprague-Dawley rat at 10 mg/kg, po administered as single dose measured up to 24 hrs post dose by LC-PDA-MS/MS analysis; format: ADME, organism-based; set-up: dose 10 mg/kg, route oral; details: in vivo
Here the recorded Cmax is given for each entry.
Note: unit ng/mL is implicit; provide only the numeric part.

O=C(O)CS(=O)(=O)c1ccc(OCc2cccc(-c3ccccc3Cl)c2)cc1 : 2560

Requested read-out: Cmax. Entry: Cc1cc(OCCCS(C)(=O)=O)cc(C)c1-c1cccc(COc2ccc(CCC(=O)O)cc2)c1 517

* * *

target: Free fatty acid receptor 1 (Homo sapiens, UniProt O14842); test: Agonist activity at human FFA1 receptor expressed in CHO cells assessed as increase in intracellular calcium flux by Fluo 4AM dye-based FLIPR assay
Sequence (O14842 whole entry): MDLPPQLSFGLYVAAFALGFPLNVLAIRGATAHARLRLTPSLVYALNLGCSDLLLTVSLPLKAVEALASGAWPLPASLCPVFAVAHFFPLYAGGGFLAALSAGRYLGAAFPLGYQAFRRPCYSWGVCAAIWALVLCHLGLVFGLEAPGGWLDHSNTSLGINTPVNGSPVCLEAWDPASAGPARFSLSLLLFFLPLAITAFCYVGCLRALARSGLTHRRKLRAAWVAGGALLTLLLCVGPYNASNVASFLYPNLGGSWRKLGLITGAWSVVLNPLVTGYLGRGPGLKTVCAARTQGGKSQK
This listing pairs compounds with measured EC50.

Below, 5 compounds whose answers are already recorded.
Cc1cccc(-c2nc(C)c(COc3ccc(S(=O)(=O)CC(=O)O)cc3)s2)c1 : 0.214 µM
COc1cc(C)c(-c2cccc(COc3ccc(S(=O)(=O)C(C)(C)C(=O)O)cc3)c2)c(C)c1 : > 1 µM
CO/N=C1\CC(CC(=O)O)c2ccc(OCc3cccc(-c4c(C)cc(OC)cc4C)c3)cc21 (stereo not given) : > 1 µM
COc1cc(C)c(-c2cccc(COc3ccc(S(=O)(=O)C(C)C(=O)O)cc3)c2)c(C)c1 (stereo not given) : > 1 µM
Cc1nc(-c2ccc(F)cc2)sc1COc1ccc(S(=O)(=O)CC(=O)O)cc1 : 0.191 µM

Give Free fatty acid receptor 1 (Homo sapiens, UniProt O14842) EC50 for Cc1noc(C)c1-c1ccc(Cl)c(COc2ccc(S(=O)(=O)CC(=O)O)cc2)c1 0.234 µM

Look up EC50 with Free fatty acid receptor 1 (Homo sapiens, UniProt O14842) for this compound: COc1cc(C)c(-c2cccc(COc3ccc4c(c3)S(=O)(=O)CC4CC(=O)O)c2)c(C)c1 (stereo not given) > 1 µM
